# System: B-Raf V600E (Homo sapiens (Human), UniProt P15056, V600E)
# Sequence (P15056 whole entry V600E): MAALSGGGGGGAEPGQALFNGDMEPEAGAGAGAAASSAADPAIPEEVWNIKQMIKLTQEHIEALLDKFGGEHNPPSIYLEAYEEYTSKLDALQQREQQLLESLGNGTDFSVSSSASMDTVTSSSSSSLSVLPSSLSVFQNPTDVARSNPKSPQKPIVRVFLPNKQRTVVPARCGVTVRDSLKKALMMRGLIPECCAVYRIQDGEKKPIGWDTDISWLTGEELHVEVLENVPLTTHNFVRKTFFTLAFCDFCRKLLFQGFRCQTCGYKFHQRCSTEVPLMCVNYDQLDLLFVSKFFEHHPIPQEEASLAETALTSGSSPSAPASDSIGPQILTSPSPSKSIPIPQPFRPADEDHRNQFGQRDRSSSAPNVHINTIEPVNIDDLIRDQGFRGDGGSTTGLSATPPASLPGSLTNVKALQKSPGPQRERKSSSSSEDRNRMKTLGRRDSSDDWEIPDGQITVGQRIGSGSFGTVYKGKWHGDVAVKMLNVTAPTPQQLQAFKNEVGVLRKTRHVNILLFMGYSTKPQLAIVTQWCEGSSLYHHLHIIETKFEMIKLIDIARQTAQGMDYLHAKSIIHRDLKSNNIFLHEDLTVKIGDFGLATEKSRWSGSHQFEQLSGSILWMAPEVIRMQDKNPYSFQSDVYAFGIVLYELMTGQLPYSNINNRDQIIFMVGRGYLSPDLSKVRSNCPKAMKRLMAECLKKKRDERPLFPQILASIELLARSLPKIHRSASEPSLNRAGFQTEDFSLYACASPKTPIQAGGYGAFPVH
# Assay Overview: B-Raf V600E kinase biochemical activity assay (AlphaScreen, biotin-MEK1 substrate)
# Test Parameters: 100 μM ATP
Measured Quantity: IC50

Observe how each entry below is paired with its result.
>>> df
                                   molecule  measured_quantity  endpoint_result
0  O=C(c1cccc(NS(=O)(=O)N2CCCC2)c1F)c1c[nH]c2ncc(-c3cc(N4CCOCC4)ncn3)cc12 [Compound P-0321]               IC50         < 0.1 µM
1  O=C(c1c(F)ccc(NS(=O)(=O)N2CC[C@@H](F)C2)c1F)c1c[nH]c2ncc(-c3cnc(C4CC4)nc3)cc12 [Compound P-0338]               IC50         < 0.1 µM
2  CC(C)(O)c1nc(-c2cnc3[nH]cc(C(=O)c4c(F)ccc(NS(=O)(=O)N5CCCC5)c4F)c3c2)cs1 [Compound P-0265]               IC50         < 0.1 µM
3  O=C(c1c(F)ccc(NS(=O)(=O)N2CCCC2)c1F)c1c[nH]c2ncc(-c3cnc(C4CC4)nc3)cc12 [Compound P-0241]               IC50         < 0.1 µM

Would you be so kind as to report IC50 for each listed record?
1. CCN(C)S(=O)(=O)Nc1ccc(F)c(C(=O)c2c[nH]c3ncc(-c4cnc(N5CCC(O)CC5)nc4)cc23)c1F [Compound P-0275]
2. COc1cc(-c2cnc3[nH]cc(C(=O)c4cccc(NS(=O)(=O)N5CCCC5)c4F)c3c2)ccc1C#N [Compound P-0049]
3. CCCN(C)S(=O)(=O)Nc1ccc(F)c(C(=O)c2c[nH]c3ncc(-c4ccc(C5(C#N)CC5)cc4)cc23)c1F [Compound P-0079]

Result:
["< 0.1 µM", "< 0.1 µM", "< 0.1 µM"]

###

# System: COLO205 colon adenocarcinoma cells (B-Raf V600E mutation)
# Assay Overview: COLO205 cell growth inhibition (ATPlite)
# Assay type: cell-based
# Test Parameters: Homo sapiens, COLO 205, 72 h, 3 days
Measured Quantity: IC50

Observe how each entry below is paired with its result.
>>> df
                                   compound  measured_quantity  endpoint_result
0  CC1CCN(S(=O)(=O)Nc2cccc(C(=O)c3c[nH]c4ncc(-c5cnc(C6CC6)nc5)cc34)c2F)C1 (stereo not shown)               IC50           < 1 µM
1  CCN(C)S(=O)(=O)Nc1ccc(F)c(C(=O)c2c[nH]c3ncc(-c4ccc(C5(O)CC5)cc4)cc23)c1F               IC50           < 1 µM
2  CCN(C)S(=O)(=O)Nc1ccc(F)c(C(=O)c2c[nH]c3ncc(-c4ccc5nc(N(C)C)ncc5c4)cc23)c1F               IC50           < 1 µM
3  Cc1ncc(-c2cnc3[nH]cc(C(=O)c4cccc(NS(=O)(=O)N5CCCC5)c4F)c3c2)cn1               IC50           < 1 µM
4  O=C(c1cccc(NS(=O)(=O)N2CCCC2)c1F)c1c[nH]c2ncc(-c3ccncc3)cc12               IC50           < 1 µM
5  CCCNS(=O)(=O)Nc1cccc(C(=O)c2c[nH]c3ncc(-c4cnn(C)c4)cc23)c1F               IC50           > 1 µM

Now for the compound whose IC50 we want.
Ask: Write down IC50 measured for item O=C(c1c(F)ccc(NS(=O)(=O)N2CCCC2)c1F)c1c[nH]c2ncc(-c3ccnc(C4CC4)c3)cc12
Result: < 1 µM

Recorded values, source patent US20230277534A1.
